B1: Pistol ribozyme (parent)
chain: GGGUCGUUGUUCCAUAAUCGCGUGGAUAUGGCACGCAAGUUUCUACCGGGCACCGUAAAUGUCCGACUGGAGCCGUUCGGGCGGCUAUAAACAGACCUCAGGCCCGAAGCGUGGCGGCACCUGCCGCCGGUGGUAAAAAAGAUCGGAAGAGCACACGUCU

Variants of: B1
Test: aptazyme ON/OFF ratio, guanine; higher = stronger switching; co-transcriptional cleavage with and without guanine
For each record, write down the corresponding aptazyme ON/OFF ratio.
Give bare numbers.

Completed entries (count: 8):
# Variant spec, Result
records = [
    ("U8C G9A U10A U11G C12U C13A", 1.18),
    ("U7G U8A G9U U10G U11G C12U C13A", 1.04),
    ("U7C G9C U11A C12G C13A", 1.12),
    ("U7C U8C G9C U10A U11G C12G C13A", 1.15),
    ("U8C G9A U10C U11C C12U C13A", 1.1),
    ("U7G U8A G9C U10G U11A C12G C13A", 1.01),
    ("U7G U8C G9U U10C U11A C13G", 1.06),
    ("U7C G9A U11C C12A C13U", 1.15),
]

Kindly give each listed record's aptazyme ON/OFF ratio.
1. U7C U8C G9C U10G U11A C12G C13G
2. U7G G9C U10G U11A
3. U7A U8A G9C U11A C12A C13U
4. U7C G9C U11G C12G
5. U7G U11A C12A

1.11
1.37
1.15
1.13
1.16

Just for reference, the RNAGym collection of RNA variant scans (doi:10.1021/acssynbio.7b00057) is where these values come from.
